tested on: Flavobacterium columnare ALM-00-173; assay: rapid 96-well microplate antibacterial bioassay against F. columnare; assay type: cell-based; details: Flavobacterium columnare, ALM00173; F. columnare ALM-00-173; 24 h; SE in parentheses; read-out: MIC (minimum inhibitory concentration)
Below, each of the compounds is paired with its reported MIC value.
Enter your answer as a number in µg/mL; do not include the unit.

[[record]]
compound = "CS(=O)(=O)c1ccc([C@@H](O)[C@@H](CF)NC(=O)C(Cl)Cl)cc1 [Florfenicol, reference compound]"
unit_descriptor = "µg/mL"
numeric_result = 0.36

[[record]]
compound = "O=C1C=C[C@H]2O[C@H](CO)C=C[C@H]2O1"
unit_descriptor = "µg/mL"
numeric_result = 182


**Q:** Given the entry NC(=O)[C@@H]1C=C[C@H]2OC(=O)C=C[C@H]2O1 [Pyranopyran amide (29)] , report its measured MIC.
**A:** 107

**Q:** Given the entry N#C[C@@H]1C=C[C@H]2OC(=O)C=C[C@H]2O1 , report its measured MIC.
**A:** 17.7

* * *

tested on: Edwardsiella ictaluri S02-1039; test: rapid 96-well microplate antibacterial bioassay against E. ictaluri; assay type: cell-based; details: Edwardsiella ictaluri, S021039, 24 h, E. ictaluri S02-1039; absorbance 630 nm; SE in parentheses; read-out: 24-h IC50 (50% inhibition concentration)
Endpoint Name: IC50 (mg/L)
Enter your answer as a number in mg/L; do not include the unit.

Reference set (3 entries):
[[record]]
compound = "N#C[C@@H]1C=C[C@H]2OC(=O)C=C[C@H]2O1"
target_system = "Edwardsiella ictaluri S02-1039"
numeric_result = 7.7

[[record]]
compound = "O=C1C=C[C@H]2O[C@H](CO)C=C[C@H]2O1"
target_system = "Edwardsiella ictaluri S02-1039"
numeric_result = 48.2

[[record]]
compound = "CS(=O)(=O)c1ccc([C@@H](O)[C@@H](CF)NC(=O)C(Cl)Cl)cc1 [Florfenicol, reference compound]"
target_system = "Edwardsiella ictaluri S02-1039"
numeric_result = 0.18


Now take the following compound into account.
**Q:** Write down the reported IC50 of NC(=O)[C@@H]1C=C[C@H]2OC(=O)C=C[C@H]2O1 [Pyranopyran amide (29)] , test system: Edwardsiella ictaluri S02-1039.
**A:** 20.5

* * *

system: Flavobacterium columnare ALM-00-173; test: rapid 96-well microplate antibacterial bioassay against F. columnare; assay type: cell-based; conditions: F. columnare ALM-00-173; MIC divided by MIC of florfenicol
Below, each of the molecules is paired with its reported MIC RDCF (relative-to-drug-control florfenicol) value.

**Q:** Given the entry N#C[C@@H]1C=C[C@H]2OC(=O)C=C[C@H]2O1 , report its measured MIC RDCF (relative-to-drug-control florfenicol).
**A:** 49.2 (0)

**Q:** Given the entry CC(=O)OC[C@@H]1C=C[C@H]2OC(=O)C=C[C@H]2O1 [Desmethylpyranopyran acetate (27)] , report its measured MIC RDCF (relative-to-drug-control florfenicol).
**A:** 622.2 (0)

* * *

// Edwardsiella ictaluri S02-1039 MIC records
Enter your answer as a number in µg/mL; do not include the unit.

Reference set (3 entries):
[[record]]
molecule = "NC(=O)[C@@H]1C=C[C@H]2OC(=O)C=C[C@H]2O1 [Pyranopyran amide (29)]"
numeric_result = 19.5

[[record]]
molecule = "CS(=O)(=O)c1ccc([C@@H](O)[C@@H](CF)NC(=O)C(Cl)Cl)cc1 [Florfenicol, reference compound]"
numeric_result = 0.36

[[record]]
molecule = "O=C1C=C[C@H]2O[C@H](CO)C=C[C@H]2O1"
numeric_result = 18.2


**Q:** Write down the reported MIC of N#C[C@@H]1C=C[C@H]2OC(=O)C=C[C@H]2O1 , test system: Edwardsiella ictaluri S02-1039.
**A:** 0.002

* * *

test system: Flavobacterium columnare ALM-00-173; assay: rapid 96-well microplate antibacterial bioassay against F. columnare; type: cell-based; conditions: F. columnare ALM-00-173; absorbance 630 nm; SE in parentheses
Endpoint Name: 24-h IC50 (50% inhibition concentration)

[[record]]
compound = "C[C@@H](O)[C@@H]1C=C[C@H]2OC(=O)C=C[C@H]2O1 [Pyranopyran (2)]"
result = "76.4 (2.0) mg/L"

[[record]]
compound = "CC(=O)OC[C@@H]1C=C[C@H]2OC(=O)C=C[C@H]2O1 [Desmethylpyranopyran acetate (27)]"
result = ">224.0 mg/L"

[[record]]
compound = "CC(=O)O[C@H](C)[C@@H]1C=C[C@H]2OC(=O)C=C[C@H]2O1 [Pyranopyran acetate (3)]"
result = ">238.0 mg/L"


Now take the following compound into account.
**Q:** Write down the reported 24-h IC50 (50% inhibition concentration) of CS(=O)(=O)c1ccc([C@@H](O)[C@@H](CF)NC(=O)C(Cl)Cl)cc1 [Florfenicol, reference compound] , test system: Flavobacterium columnare ALM-00-173.
**A:** 0.54 mg/L

* * *

tested on: Lemna paucicostata (L.) Hegelm. (duckweed); assay: duckweed phytotoxicity bioassay (growth by frond area); format: in vivo; details: Lemna aequinoctialis, 144 h; Lemna paucicostata growth, frond area; FIG. 6, 6 days of exposure; read-out: IC50 (concentration that inhibits growth 50%)
pIC50: −log10 of the molar value.
Endpoint Name: pIC50

**Q:** Write down the reported pIC50 of N#C[C@@H]1C=C[C@H]2OC(=O)C=C[C@H]2O1 [Pyranopyran nitrile (4)] , test system: Lemna paucicostata (L.) Hegelm. (duckweed).
**A:** > 6.00

* * *

Below, each of the molecules is paired with its reported MIC RDCF (relative-to-drug-control florfenicol) value.
system: Flavobacterium columnare ALM-00-173; assay: rapid 96-well microplate antibacterial bioassay against F. columnare; type: cell-based; conditions: F. columnare ALM-00-173; MIC divided by MIC of florfenicol

Reference set (3 entries):
[[record]]
molecule = "NC(=O)[C@@H]1C=C[C@H]2OC(=O)C=C[C@H]2O1 [Pyranopyran amide (29)]"
result = "297.9 (243.8)"

[[record]]
molecule = "CC(=O)O[C@H](C)[C@@H]1C=C[C@H]2OC(=O)C=C[C@H]2O1 [Pyranopyran acetate (3)]"
result = "661.1 (0)"

[[record]]
molecule = "O=C1C=C[C@H]2O[C@H](CO)C=C[C@H]2O1"
result = "505.6 (0)"


**Q:** Given the entry C[C@@H](O)[C@@H]1C=C[C@H]2OC(=O)C=C[C@H]2O1 , report its measured MIC RDCF (relative-to-drug-control florfenicol).
**A:** 544.4 (0)
